- target: Aldo-keto reductase family 1 member C3 (Homo sapiens)
- Sequence (whole entry): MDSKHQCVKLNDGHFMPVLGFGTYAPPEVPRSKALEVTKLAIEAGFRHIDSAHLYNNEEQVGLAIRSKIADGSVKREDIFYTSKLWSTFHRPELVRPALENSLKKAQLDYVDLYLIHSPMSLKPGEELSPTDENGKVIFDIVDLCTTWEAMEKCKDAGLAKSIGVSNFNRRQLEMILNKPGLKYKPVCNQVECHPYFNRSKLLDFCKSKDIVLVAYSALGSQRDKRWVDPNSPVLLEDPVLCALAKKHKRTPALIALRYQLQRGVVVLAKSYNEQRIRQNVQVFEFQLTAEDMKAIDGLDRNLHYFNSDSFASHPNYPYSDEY
- measurement-description: Inhibition of AKR1C3 in human HL60 cells assessed as potentiation of etoposide-induced cytotoxicity by measuring reduction in cell viability at 0.1 uM coincubated with etoposide at 1 uM after 72 hrs by MTS assay (reference value: 40%)
- Type: cell-based
Please go through the items and note down their Activity.
Answers are plain numbers, in %.

Known results for compounds:
chemical-smiles: CC(C)=CCc1ccc(/C=C/C(=O)O)cc1NC(=O)CCc1ccccc1
property-measured: Activity
output-unit: %
numeric-readout: 52
//
chemical-smiles: CC(C)=CCc1cc(/C=C/C(=O)O)ccc1OC(=O)CCc1ccccc1
property-measured: Activity
output-unit: %
numeric-readout: 70
//
chemical-smiles: CC(C)=CCc1ccc(/C=C/C(=O)O)cc1OC(=O)CCc1ccccc1
property-measured: Activity
output-unit: %
numeric-readout: 80

Lab note: next compound to report on.
**Q:** Fill in Activity for record CC(C)=CCc1cc(/C=C/C(=O)O)ccc1NC(=O)CCc1ccccc1
**A:** 57

----------
- target: Aldo-keto reductase family 1 member C3 (Homo sapiens)
- measurement-description: Inhibition of recombinant N-terminal His-tagged AKR1C3 (unknown origin) assessed as rate of change of pyridine nucleotide absorbance in presence of NADPH
property-measured: IC50
Include the unit after the number when you answer.

**Q:** Give IC50 for the following compound: CC(=O)O[C@]1(C(C)=O)CC[C@H]2[C@@H]3C[C@H](C)C4=CC(=O)CC[C@]4(C)[C@H]3CC[C@@]21C [MEDROXYPROGESTERONE ACETATE]
**A:** 2.51 µM

----------
- target: Aldo-keto reductase family 1 member C3 (Homo sapiens, UniProt P42330)
- measurement-description: Inhibition of N-terminal His6-tagged human recombinant AKR1C3 in presence of NADPH by fluorescence assay
property-measured: pIC50
Give bare numbers, as −log10 of the molar value.

**Q:** For the compound C[C@@H]1C(O)=C(C(N)=O)C(=O)[C@@]2(O)C(O)=C3C(=O)c4c(O)cccc4[C@@](C)(O)[C@H]3C[C@@H]12 , report pIC50.
**A:** 6.30
